These entries and their values trace back to patent US7276502B2.

Protein target, amino acids: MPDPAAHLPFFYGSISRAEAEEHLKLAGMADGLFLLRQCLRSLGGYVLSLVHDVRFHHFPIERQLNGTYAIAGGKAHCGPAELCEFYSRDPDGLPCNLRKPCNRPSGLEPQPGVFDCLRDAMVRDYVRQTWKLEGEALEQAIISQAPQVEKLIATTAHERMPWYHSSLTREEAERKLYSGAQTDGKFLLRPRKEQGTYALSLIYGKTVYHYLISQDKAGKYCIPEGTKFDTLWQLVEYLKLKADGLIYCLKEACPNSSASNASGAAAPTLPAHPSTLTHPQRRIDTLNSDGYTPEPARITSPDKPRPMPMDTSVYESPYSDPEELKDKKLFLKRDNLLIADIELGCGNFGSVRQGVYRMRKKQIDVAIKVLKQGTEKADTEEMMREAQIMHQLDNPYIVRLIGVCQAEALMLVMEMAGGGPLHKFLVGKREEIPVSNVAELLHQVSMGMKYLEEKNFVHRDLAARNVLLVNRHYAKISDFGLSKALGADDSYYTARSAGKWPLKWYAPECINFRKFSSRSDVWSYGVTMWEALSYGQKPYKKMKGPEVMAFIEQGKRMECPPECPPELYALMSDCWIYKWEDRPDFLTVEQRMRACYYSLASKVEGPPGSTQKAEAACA
Ki reference

compound-smiles: Cc1cc(C)cc(Nc2nccc(-c3ncc(CNc4ccncc4)s3)n2)c1
Ki: ≤ 5 µM

compound-smiles: Cc1cc(C)cc(Nc2nccc(-c3nc4ccccc4s3)n2)c1
Ki: ≤ 5 µM

compound-smiles: COc1cc(Nc2nccc(-c3nc(CO)cs3)n2)cc(C(F)(F)F)c1
Ki: ≤ 5 µM

compound-smiles: OCc1csc(-c2ccnc(Nc3cc(O)cc(C(F)(F)F)c3)n2)n1
Ki: ≤ 5 µM

compound-smiles: CNC(=O)c1cnc(-c2ccnc(Nc3cc(C)cc(C)c3)n2)s1
Ki: ≤ 5 µM

compound-smiles: Cc1cnc(-c2ccnc(Nc3ccc(Cl)c(C)c3)n2)s1
Ki: ≤ 5 µM

compound-smiles: Cc1cc(C)cc(Nc2nccc(-c3ncc(N4CCCCC4)s3)n2)c1
Ki: ≤ 5 µM

compound-smiles: COc1ccc(Nc2nccc(-c3ncc(C)s3)n2)cc1
Ki: ≤ 5 µM

compound-smiles: Cc1cc(C)cc(Nc2nccc(-c3ncc(Br)s3)n2)c1
Ki: ≤ 5 µM

compound-smiles: COc1cccc(Nc2nccc(-c3ncc(C)s3)n2)c1
Ki: ≤ 5 µM

compound-smiles: Cc1cc(C)cc(Nc2nccc(-c3ncc(CN4CCOCC4)s3)n2)c1
Ki: ≤ 5 µM

compound-smiles: CCCc1ccccc1Nc1nccc(-c2ncc(C)s2)n1
Ki: ≤ 5 µM

compound-smiles: Cc1cc(C)cc(Nc2nccc(-c3ncc(CNc4ccccc4)s3)n2)c1
Ki: ≤ 5 µM

compound-smiles: CC(=O)c1ccc(Nc2nccc(-c3ncc(C)s3)n2)cc1
Ki: ≤ 5 µM

compound-smiles: OCc1cnc(-c2ccnc(Nc3ccccc3OCc3ccccc3)n2)s1
Ki: ≤ 5 µM

compound-smiles: Cc1cnc(-c2ccnc(Nc3ccc4c(C)cc(=O)oc4c3)n2)s1
Ki: ≤ 5 µM

compound-smiles: Cc1cnc(-c2ccnc(Nc3ccc4sc(C)nc4c3)n2)s1
Ki: ≤ 5 µM

compound-smiles: Cc1cnc(-c2ccnc(Nc3cccc(C(N)=O)c3)n2)s1
Ki: ≤ 5 µM

compound-smiles: Cc1cc(C)cc(Nc2nccc(-c3nc(CBr)cs3)n2)c1
Ki: ≤ 5 µM
